# target system: RSV fusion glycoprotein (RSV-F) of the RSV used in the neutralization of Table 33 (respiratory syncytial virus, strain not stated)
# experiment description: cell-based or functional assay
Each item that follows carries a reported IC50 (ng/mL) in neutralization against RSV.
Be sure to follow the number with its unit.

Worked cases, IC50 (ng/mL) in neutralization against RSV given:
MPK190-v1.1-rIgG1m17,1-LS (antibody, V domains shown) VH: QVQLVESGGGLVKPGGSLTLSCAASGFSISGYGMNWVRQAPGRGLEWVASISASSTYIYYADSMKGRFTISRDNGKTSLYLQMKSLRAEDTAVYYCARAPIEPPYFDLWGRGTLVTVSS VL: QSVLTQPPSVSGAPGQRVTISCTGSNSNIGAGYDVHWYQHLPGKAPKVLIYGNNNRPSVVPDRFSGSNSGASASLAISGLQAEDEADYFCQSYDRRLSGPIFGGGTKLTVL: 5.8 ng/mL
RSD5-FR-GL-rIgG1 (antibody, V domains shown) VH: QVQLVESGGGVVQPGRSLRLSCAASGFAFNNFAMHWVRQAPGKGLEWVAVVSYDGTSPYYADSVKGRFTISRDNSKNTLYLQMNSLRAEDTAVYYCARGLGSGSYSWIGYFYAMDVWGQGTTVTVSS VL: QSALTQPASVSGSPGQSITISCTGTSSDVGGYVYVSWYQQHPGKAPKLMIYDVSNRPSGVSNRFSGSKSGNTASLTISGLQAEDEADYYCISYTDRNTVVFGGGTKLTVL: 1.2 ng/mL
MPK104-v1.1-rIgG1m17,1-LS (antibody, V domains shown) VH: QVQLVESGGGLVKPGGSLRLSCAASGFTIDGYGMNWVRQAPGKGLEWVSSISASSNYIYYADSMKGRFTISRDNGKNSLYLQMHSLRVEDTGVYYCARAPLEPPYFDLWGRGTLVTVSS VL: QSVLTQPPSVSGAPGQRVTISCSGGSSNIGAGYDVHWYQQVPGKGPKVLIYGNNNRPSGVPDRFSGSNFGASASLAITGLQADDEADYFCQSYDRRLGGPVFGGGTKLTVL: 6.61 ng/mL

Now, please, on to the next binder.
Please look up its IC50 (ng/mL) in neutralization against RSV: MPK104-v1.3-rIgG1m17,1-LS (antibody, V domains shown) VH: QVQLVESGGGLVKPGGSLRLSCAASGFTIDGYGMNWVRQAPGKGLEWVSSISASSNYIYYADSMKGRFTISRDNGKNSLYLQMHSLRVEDTGVYYCARAPLEPPYFDLWGRGTLVTVSS VL: QSVLTQPPSVSGAPGQRVTISCSGGSSNIGAGYDVHWYQQVPGKGPKVLIYGNTNRPSGVPDRFSGSNFGASASLAITGLQAEDEADYFCQSYDRRLGGPVFGGGTKLTVL 4.8 ng/mL
